measured-target: Aβ42 (Homo sapiens)
assay-method-text: Th-T (thioflavin-T) assay of Aβ42 aggregation
Type: biochemical
setup-conditions: compound at 10; reading M48 of time course
Recorded Th-T fluorescence, mean of three wells by entry

Observe how each entry below is paired with its result.
[[record]]
compound = "C=C1CC[C@@H]2[C@](C)(CC[C@H]3O[C@H](C=C(C)C)C[C@@]23C)[C@@H]1Cc1c(OC)oc(CO)c(C)c1=O"
measured_value = 3.454

[[record]]
compound = "C=C1CCC2C(C)(CCC=C(C)C)C(O)CCC2(C)C1Cc1c(OC)oc(C)c(C(=O)OC)c1=O (centres unmarked)"
measured_value = 2.517

[[record]]
compound = "C=C1CC[C@@H]2[C@](C)(CC[C@H]3O[C@H](C=C(C)C)C[C@@]23C)[C@@H]1Cc1c(OC)oc(CO)c(C(=O)OC)c1=O"
measured_value = 0.2676

[[record]]
compound = "C=C1CCC2C(C)(CCC=C(C)C)C(O)CCC2(C)C1Cc1c(OC)oc(CO)c(C)c1=O (centres unmarked)"
measured_value = 3.386


Field: next compound
Lab note: measured Th-T fluorescence, mean of three wells of C=C1CCC2C(C)(CCC=C(C)C)C(O)CCC2(C)C1Cc1c(OC)oc(CO)c(C(=O)OC)c1=O (centres unmarked) was 1.487

###

measured-target: UniProt P05067
assay-method-text: Th-T (thioflavin-T) assay of Aβ42 aggregation
Assay type: biochemical
setup-conditions: Aβ42 aggregation time course, reading M118
measured-quantity: Th-T fluorescence, mean of three wells

[[record]]
compound = "C=C1CCC2C(C)(CCC=C(C)C)C(O)CCC2(C)C1Cc1c(O)c(C)c(C)oc1=O (stereo not shown) [Compound 4]"
measured_value = 2.782

[[record]]
compound = "CC(C)=CCC/C(C)=C/CC/C(C)=C/CC/C(C)=C/Cc1c(O)c(C)c(C)oc1=O"
measured_value = 2.9616

[[record]]
compound = "C=C1CC[C@@H]2[C@](C)(CC[C@H]3O[C@H](C=C(C)C)C[C@@]23C)[C@@H]1Cc1c(OC)oc(CO)c(C)c1=O"
measured_value = 4.194

[[record]]
compound = "C=C1CC[C@H]2[C@]3(C)C[C@H](C=C(C)C)O[C@H]3CC[C@]2(C)[C@@H]1Cc1c(OC)oc(CO)c(C)c1=O"
measured_value = 3.826

[[record]]
compound = "C=C1CCC2C(C)(CCC=C(C)C)C(O)CCC2(C)C1Cc1c(OC)oc(CO)c(C)c1=O (stereo not shown)"
measured_value = 2.063


Lab note: measured Th-T fluorescence, mean of three wells of C=C1CCC2C(C)(CC(=O)C=C(C)C)C(O)CCC2(C)C1Cc1c(OC)oc(C)c(C)c1=O (stereo not shown) was 3.615

Lab note: measured Th-T fluorescence, mean of three wells of `C=C1CC[C@@H]2[C@](C)(CC[C@H]3O[C@H](C=C(C)C)C[C@@]23C)[C@@H]1Cc1c(O)c(C)c(C)oc1=O` was 3.005

###

measured-target: Aβ42 (Homo sapiens, UniProt P05067)
Sequence (P05067 672-713): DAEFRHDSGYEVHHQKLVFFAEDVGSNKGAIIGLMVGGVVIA
assay-method-text: Th-T (thioflavin-T) assay of Aβ42 aggregation
Assay type: biochemical
setup-conditions: concentration 50, unit not given; time-course reading M132
measured-quantity: Th-T fluorescence of Aβ42 with compound, mean of three wells (Fig. 7a source data)
Could you keep your reply to the number by itself?

Observe how each entry below is paired with its result.
[[record]]
molecule = "C=C1CCC2C(C)(CCC=C(C)C)C(O)CCC2(C)C1Cc1c(OC)oc(CO)c(C(=O)OC)c1=O (centres unmarked)"
measured_value = 0.4776

[[record]]
molecule = "C=C1CCC2C(C)(CCC=C(C)C)C(O)CCC2(C)C1Cc1c(OC)oc(CO)c(C)c1=O (centres unmarked)"
measured_value = 1.5892

[[record]]
molecule = "C=C1CC[C@@H]2[C@](C)(CC[C@H]3O[C@H](C=C(C)C)C[C@@]23C)[C@@H]1Cc1c(OC)oc(CO)c(C(=O)OC)c1=O"
measured_value = 0.5011

[[record]]
molecule = "C=C1CC[C@@H]2[C@](C)(CC[C@H]3O[C@H](C=C(C)C)C[C@@]23C)[C@@H]1Cc1c(OC)oc(CO)c(C)c1=O"
measured_value = 2.119


Field: next molecule
I looked up C=C1CCC2C(C)(CCC=C(C)C)C(O)CCC2(C)C1Cc1c(OC)oc(C)c(C(=O)OC)c1=O (centres unmarked) and its Th-T fluorescence of Aβ42 with compound, mean of three wells (Fig. 7a source data) for Aβ42 (Homo sapiens, UniProt P05067) was 0.8369

###

measured-target: Aβ42 (Homo sapiens, UniProt P05067)
assay-method-text: Th-T (thioflavin-T) assay of Aβ42 aggregation
Type: biochemical
setup-conditions: measurement M14; source data, Ab alone and No Ab as controls
Values of Th-T assay plate reading, mean of three wells (Supplementary Fig. 47) greater than or equal to 0.9 map to label 1; values below map to label 0.

Worked examples follow.
[[record]]
compound = "C=C1CC[C@H]2[C@]3(C)C[C@@H](C=C(C)C)O[C@H]3CC[C@]2(C)[C@@H]1Cc1c(O)c(C)c(C)oc1=O"
class_label = "label 1"

[[record]]
compound = "C=C1CCC2C(C)(CC(=O)C=C(C)C)C(O)CCC2(C)C1Cc1c(O)c(C)c(C)oc1=O (stereo not shown)"
class_label = "label 0"

[[record]]
compound = "C=C1CC[C@H]2[C@]3(C)C[C@H](C=C(C)C)O[C@H]3CC[C@]2(C)[C@@H]1Cc1c(O)c(C)c(C)oc1=O"
class_label = "label 0"

[[record]]
compound = "C=C1CCC2C(C)(CCC=C(C)C)C(O)CCC2(C)C1Cc1c(OC)oc(CO)c(C(=O)OC)c1=O (stereo not shown)"
class_label = "label 0"

[[record]]
compound = "C=C1CCC2C(C)(CCC=C(C)C)C(O)CCC2(C)C1Cc1c(OC)oc(CO)c(C)c1=O (stereo not shown)"
class_label = "label 1"


Kindly determine if Th-T assay plate reading, mean of three wells (Supplementary Fig. 47) recorded for C=C1CCC2C(C)(CCC=C(C)C)C(=O)CCC2(C)C1Cc1c(O)c(C)c(C)oc1=O (stereo not shown) is above or exactly 0.9.
label 0

###

measured-target: Aβ42 (Homo sapiens, UniProt P05067)
assay-method-text: Th-T (thioflavin-T) assay of Aβ42 aggregation
Assay type: biochemical
setup-conditions: column suffix _50; measurement M26
Recorded Th-T fluorescence, mean of three wells (Fig. 7a) by entry
Could you keep your reply to the number by itself?

Observe how each entry below is paired with its result.
[[record]]
compound = "C=C1CCC2C(C)(CCC=C(C)C)C(O)CCC2(C)C1Cc1c(OC)oc(CO)c(C)c1=O (centres unmarked)"
measured_target = "Aβ42 (Homo sapiens, UniProt P05067)"
measured_value = 1.64

[[record]]
compound = "C=C1CCC2C(C)(CCC=C(C)C)C(O)CCC2(C)C1Cc1c(OC)oc(C)c(C(=O)OC)c1=O (centres unmarked)"
measured_target = "Aβ42 (Homo sapiens, UniProt P05067)"
measured_value = 0.8076

[[record]]
compound = "C=C1CCC2C(C)(CCC=C(C)C)C(O)CCC2(C)C1Cc1c(OC)oc(CO)c(C(=O)OC)c1=O (centres unmarked)"
measured_target = "Aβ42 (Homo sapiens, UniProt P05067)"
measured_value = 0.3518


Lab note: measured Th-T fluorescence, mean of three wells (Fig. 7a) of `C=C1CC[C@@H]2[C@](C)(CC[C@H]3O[C@H](C=C(C)C)C[C@@]23C)[C@@H]1Cc1c(OC)oc(CO)c(C(=O)OC)c1=O` was 0.2113

Lab note: measured Th-T fluorescence, mean of three wells (Fig. 7a) of `C=C1CC[C@@H]2[C@](C)(CC[C@H]3O[C@H](C=C(C)C)C[C@@]23C)[C@@H]1Cc1c(OC)oc(CO)c(C)c1=O` was 2.22

###

measured-target: Aβ42 (Homo sapiens)
assay-method-text: Th-T (thioflavin-T) assay of Aβ42 aggregation
Format: biochemical
setup-conditions: Supplementary Fig. 47; reading M144
measured-quantity: Th-T fluorescence, mean of three wells
Could you keep your reply to the number by itself?

Observe how each entry below is paired with its result.
[[record]]
compound = "C=C1CCC2C3(C)CC(C=C(C)C)OC3CCC2(C)C1Cc1c(OC)oc(C)c(C)c1=O (stereo not drawn) [Compound 23]"
measured_quantity = "Th-T fluorescence, mean of three wells"
measured_value = 3.718

[[record]]
compound = "C=C1CC[C@H]2[C@]3(C)C[C@@H](C=C(C)C)O[C@H]3CC[C@]2(C)[C@@H]1Cc1c(OC)oc(CO)c(C)c1=O [Compound 17]"
measured_quantity = "Th-T fluorescence, mean of three wells"
measured_value = 3.562


Field: next compound
Lab note: measured Th-T fluorescence, mean of three wells of C=C1CC[C@H]2[C@]3(C)C[C@H](C=C(C)C)O[C@H]3CC[C@]2(C)[C@@H]1Cc1c(OC)oc(CO)c(C)c1=O [Compound 18] was 3.702

From: paper PMC7156458
